Values were extracted from PubChem BioAssay (NCI).

- Tested on: M14 melanoma
- experimental protocol: NCI tumour cell line growth inhibition, 48 h
Item-by-item account of TGI

>  <compound>
O=C(N/C(=C\c1ccc([N+](=O)[O-])cc1)c1nc2ccccc2s1)c1ccccc1

>  <obs value>
81.8 µM

$$$$
>  <compound>
O=CN1CCN(c2ccc3ccc(=O)[nH]c3n2)CC1

>  <obs value>
> 100 µM

$$$$

Look up M14 melanoma data: TGI of CC1CC(=O)N(N(C)C)C2(C#N)C(=O)N=C(N)C12C#N (stereo not given) , then report it.
> 100 µM

// output TGI; input NC(=S)NNCC(=O)CC(O)(C(F)(F)F)C(F)(F)Cl (stereo not given) ; system M14 melanoma
> 100 µM

Jot down TGI (M14 melanoma) of C=CCOCC1C2CCC3(OCCO3)C21 (stereo not given) .
> 100 µM

---

Catalogue of TGI values
- Tested on: KM12 colon
- experimental protocol: NCI tumour cell line growth inhibition, 48 h

Some solved cases for reference:
>  <compound>
CC(C)c1ccc(O)c(Cc2cc(C(C)C)cc(Cc3cc(C(C)C)ccc3O)c2O)c1

>  <readout>
TGI

>  <obs value>
3.74 µM

$$$$
>  <compound>
C[N+](C)(C)CC1CCC(C[N+](C)(C)C)C1=NO (stereo not drawn)

>  <readout>
TGI

>  <obs value>
> 100 µM

$$$$
>  <compound>
O/N=C\c1c2c(cc3c1CCC3)CCC2

>  <readout>
TGI

>  <obs value>
> 100 µM

$$$$
>  <compound>
COc1ccc(-c2nsc3c2NC(=O)CC3c2ccsc2)cc1 (stereo not drawn)

>  <readout>
TGI

>  <obs value>
> 34 µM

$$$$

Please give measured TGI of the following entry: CC(=O)OC1CCn2c1nc1cc([N+](=O)[O-])c(C)cc12 (stereo not drawn)
> 100 µM

Answer with the recorded TGI of COC(=O)[C@@H]1c2c(oc3cc(CO)cc(O)c3c2=O)C=C[C@H]1O only.
14.8 µM

Please give the documented TGI of S=c1ncc(-c2cncc(-c3cnc(=S)[nH]c3)n2)c[nH]1
> 100 µM

Supply reported TGI belonging to this compound: CCCCCCCCCCCCCCCCCc1nc(Cl)nc(Cl)c1Cl
> 100 µM

Give the measured TGI for Nc1nc(Cl)c2ncn(CCCC(c3ccccc3)P(=O)(O)O)c2n1 (stereo not drawn)
> 100 µM

Consider the compound OCCc1ccsc1-c1sc(-c2cc(CCO)c(-c3sc(-c4cc(CCO)c(-c5sccc5CCO)s4)cc3CCO)s2)cc1CCO . State its measured TGI.
1.9 µM

Retrieve TGI measured for CCCC1C[C@H]2CCCCN2[C@H]2CCCN12 (stereo partly drawn) and print it.
> 100 µM

Find the measured TGI of S=c1ssnc1-c1cc2ccccc2o1 and report it.
35.1 µM

Identify TGI associated with the compound COC(=O)CN1CCN(c2cccc3c2CCCC3)CC1
> 100 µM

Note TGI for the compound shown: Cc1cc(N(CCC#N)CCC#N)ccc1/C=C(\NC(=O)/C=C/c1ccccc1)C(=O)Nc1ccccc1Cl
> 100 µM

---

- Tested on: HT29 colon
- experimental protocol: NCI tumour cell line growth inhibition, 48 h
Below, each entry is listed with its recorded GI50.

Output GI50 of CCn1c(-c2nonc2N)nc2ccccc21
> 25 µM

Give the value of GI50 reported for the following: S=c1ssnc1-c1cc2ccccc2o1
14.3 µM

---

- Tested on: UACC-257 melanoma
- experimental protocol: NCI tumour cell line growth inhibition, 48 h; in the data active = GI50 below about 0.43 µM; inactive = the rest
Lab note: assign the record to one of true for active, false for inactive

Sample answers from the record:
>  <compound>
O=c1c(I)c[nH]cc1I

>  <label class>
false

$$$$
>  <compound>
CN1CCCCC1CCN1c2ccccc2Sc2ccc(Br)cc21 (stereo not drawn)

>  <label class>
false

$$$$
>  <compound>
O=C(/C=C/c1ccc(O)c(O)c1)N1CCN(c2ccc(Cl)cc2)CC1

>  <label class>
false

$$$$
>  <compound>
CCN(CC)c1ccc(/C=N/NC(=O)Cc2ccc(Nc3ccnc(C(F)(F)F)c3)cc2)c(O)c1

>  <label class>
false

$$$$
>  <compound>
CC[C@H](C)[C@H](NC(=O)[C@H]1CCCCN1C)C(=O)N(C)[C@H](CCc1nc(C(=O)N[C@@H](Cc2ccccc2)C[C@H](C)C(=O)O)cs1)C(C)C

>  <label class>
false

$$$$

Outcome? Nc1nc(SCc2ccccc2CCl)c2[nH]cnc2n1
false

Dear colleague, could you share the recorded outcome for CC(=O)c1cc2c(N)c(C(=O)Nc3cccc4ccccc34)sc2nc1C when you have a moment?
false

---

- System: MALME-3M melanoma
- experimental protocol: NCI tumour cell line growth inhibition, 48 h
readout: TGI

Consider the reported TGI for these compounds:
>  <compound>
CC1(C)N=C(C(N)=O)c2[nH]cnc2N1

>  <TGI>
> 100 µM

$$$$
>  <compound>
CCCOC(=O)c1cc(O)c(O)c(O)c1

>  <TGI>
> 100 µM

$$$$
>  <compound>
Cc1cc(N(CCC#N)CCC#N)ccc1/C=C(\NC(=O)/C=C/c1ccccc1)C(=O)Nc1ccccc1Cl

>  <TGI>
> 100 µM

$$$$
>  <compound>
N#C[S-].[La+3].c1ccc(-c2ccccn2)nc1.c1ccc(-c2ccccn2)nc1.c1ccc(-c2ccccn2)nc1

>  <TGI>
60.9 µM

$$$$
>  <compound>
Cn1c(=O)c(-c2ccccc2Cl)cc2cnc(NC3CCOCC3)nc21

>  <TGI>
> 22.3 µM

$$$$
>  <compound>
Cc1c(C#N)c2nnn(-c3cccc(Cl)c3)c(=O)n2c1-c1ccccc1

>  <TGI>
> 100 µM

$$$$
>  <compound>
CSc1cc(Cl)c(C)cc1S(=O)(=O)NC(=O)NNc1ccc(C)cc1

>  <TGI>
> 100 µM

$$$$
>  <compound>
O=c1cc(-c2ccccc2)oc2ccc(Cl)cc12

>  <TGI>
> 82.4 µM

$$$$
>  <compound>
NC(Cc1ccccc1)C(=O)OCN1C(=O)C2C3C=CC(C2C1=O)C1C(=O)N(COC(=O)C(N)Cc2ccccc2)C(=O)C31 (stereo unspecified)

>  <TGI>
> 100 µM

$$$$
>  <compound>
Cc1cccc2c(=O)c3c(O)cc(O)cc3n(C)c12

>  <TGI>
> 100 µM

$$$$

Determine its reported TGI: CNC(=O)OCc1cnc([N+](=O)[O-])n1C
> 100 µM

Identify measured TGI associated with COc1cc(C(=O)c2cnc(-c3c[nH]c4cccc(C)c34)[nH]2)cc(OC)c1OC
> 100 µM

Supply reported TGI belonging to this compound: COC(=O)C1=NC(=S)NC(c2ccccc2)C1c1nc2ccccc2o1 (stereo unspecified)
> 50 µM

Respond only with TGI recorded for CC(C)(C)N/N=C(/Cc1nc2c3c(ccc2[nH]c1=O)C(=O)c1ccccc1C3=O)C(=O)NC1=C(Cl)C(=O)c2ccccc2C1=O
37.8 µM

For the compound CCOC(=O)N1c2ccccc2C(C)=CC(C)C1C (stereo unspecified) , give its measured TGI value.
> 100 µM

Using known records, supply TGI for Cc1cc(NC(=O)NCc2ccc(N3C(N)=NC(N)=NC3(C)C)cc2)ccc1S(=O)(=O)F
98.5 µM

Note down TGI recorded for O=C1CCC(c2ccccc2)=NN1c1nc2ccccc2s1
95.6 µM

Give the value of TGI reported for the following: Cc1cc(N2CCC(N3CCCC3)CC2)nc(/N=C(\N)Nc2ccc(Cl)c(Cl)c2)n1
3.82 µM

---

- System: NCI-H226 lung
- experimental protocol: NCI tumour cell line growth inhibition, 48 h; in the data active means GI50 below about 0.43 µM; inactive means the rest
Would you mind answering with one of these outcomes? active, inactive

>  <compound>
COc1cc(C(=O)c2cnc(-c3c[nH]c4cccc(C)c34)[nH]2)cc(OC)c1OC

>  <target under test>
NCI-H226 lung

>  <label class>
active

$$$$
>  <compound>
CCCCNc1ncnc2c1cnn2-c1ccccc1

>  <target under test>
NCI-H226 lung

>  <label class>
inactive

$$$$
>  <compound>
Nc1ccc(CC[C@H]2CCC/C=C/[C@@H]3C[C@H](O)C[C@H]3[C@H](O)/C=C/C(=O)O2)cc1

>  <target under test>
NCI-H226 lung

>  <label class>
active

$$$$
>  <compound>
COc1cccc(C2CC(=O)Nc3c2c(C)nn3-c2nc3ccccc3[nH]2)c1OC (stereo not drawn)

>  <target under test>
NCI-H226 lung

>  <label class>
inactive

$$$$
>  <compound>
C=CCC(N[C@@H](CO)c1ccccc1)c1ccc2ccccc2n1 (stereo partly drawn)

>  <target under test>
NCI-H226 lung

>  <label class>
inactive

$$$$

Given CCc1ccc2c(c1)C(=O)c1c-2n(CCCN)c(=O)c2cc(OC)c(OC)cc12 , state the outcome it received in this test.
inactive

Check the results log: what was the call for COc1cc2c(c(OC)c1OC)-c1cc(I)c(O)cc1[C@@H](NC(C)=O)CC2 ?
active

Give the logged outcome of this assay for the following compound: Cn1c(=O)c(-c2ccccc2Cl)cc2cnc(NC3CCOCC3)nc21
inactive
